Listed here are compounds together with their documented pIC50.
molecular target: wild type PRC2 (wtPRC2) complex (Homo sapiens (Human)); experiment: EED LC-MS assay; conditions: read-out: (b) IC50 EED LC-MS Qualified
Sequence (O75530 whole entry): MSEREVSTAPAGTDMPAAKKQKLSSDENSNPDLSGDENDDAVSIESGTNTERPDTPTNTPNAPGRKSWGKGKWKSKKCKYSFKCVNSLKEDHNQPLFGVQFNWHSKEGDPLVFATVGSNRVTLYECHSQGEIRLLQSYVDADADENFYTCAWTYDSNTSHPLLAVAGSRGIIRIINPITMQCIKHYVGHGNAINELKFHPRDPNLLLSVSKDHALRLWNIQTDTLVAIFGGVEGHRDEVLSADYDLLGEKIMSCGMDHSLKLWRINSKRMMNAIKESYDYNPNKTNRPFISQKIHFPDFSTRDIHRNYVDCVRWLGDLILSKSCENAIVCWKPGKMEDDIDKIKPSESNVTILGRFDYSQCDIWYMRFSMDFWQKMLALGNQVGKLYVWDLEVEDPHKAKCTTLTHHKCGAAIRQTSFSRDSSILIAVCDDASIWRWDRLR
Sequence (Q15910 whole entry partner): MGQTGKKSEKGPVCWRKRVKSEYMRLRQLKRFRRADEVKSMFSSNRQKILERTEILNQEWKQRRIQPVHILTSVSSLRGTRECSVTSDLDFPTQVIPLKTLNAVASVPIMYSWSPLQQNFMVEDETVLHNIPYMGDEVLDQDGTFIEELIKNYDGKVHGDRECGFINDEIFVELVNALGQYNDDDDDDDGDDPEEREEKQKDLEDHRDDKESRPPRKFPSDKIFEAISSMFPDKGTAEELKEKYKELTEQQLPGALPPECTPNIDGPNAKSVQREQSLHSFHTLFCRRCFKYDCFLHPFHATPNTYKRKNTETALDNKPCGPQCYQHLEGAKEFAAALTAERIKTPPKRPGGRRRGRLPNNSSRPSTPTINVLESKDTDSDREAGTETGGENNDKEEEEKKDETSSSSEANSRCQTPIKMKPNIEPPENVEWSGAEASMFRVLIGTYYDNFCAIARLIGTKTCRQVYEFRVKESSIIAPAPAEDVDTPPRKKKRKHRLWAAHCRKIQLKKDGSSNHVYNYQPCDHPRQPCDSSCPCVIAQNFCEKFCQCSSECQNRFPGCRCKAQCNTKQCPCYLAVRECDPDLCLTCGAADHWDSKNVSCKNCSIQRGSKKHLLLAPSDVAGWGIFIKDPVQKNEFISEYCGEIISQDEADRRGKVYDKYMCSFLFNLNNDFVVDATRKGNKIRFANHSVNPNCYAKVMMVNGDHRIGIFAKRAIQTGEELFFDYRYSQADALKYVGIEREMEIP
Sequence (Q15022 whole entry partner): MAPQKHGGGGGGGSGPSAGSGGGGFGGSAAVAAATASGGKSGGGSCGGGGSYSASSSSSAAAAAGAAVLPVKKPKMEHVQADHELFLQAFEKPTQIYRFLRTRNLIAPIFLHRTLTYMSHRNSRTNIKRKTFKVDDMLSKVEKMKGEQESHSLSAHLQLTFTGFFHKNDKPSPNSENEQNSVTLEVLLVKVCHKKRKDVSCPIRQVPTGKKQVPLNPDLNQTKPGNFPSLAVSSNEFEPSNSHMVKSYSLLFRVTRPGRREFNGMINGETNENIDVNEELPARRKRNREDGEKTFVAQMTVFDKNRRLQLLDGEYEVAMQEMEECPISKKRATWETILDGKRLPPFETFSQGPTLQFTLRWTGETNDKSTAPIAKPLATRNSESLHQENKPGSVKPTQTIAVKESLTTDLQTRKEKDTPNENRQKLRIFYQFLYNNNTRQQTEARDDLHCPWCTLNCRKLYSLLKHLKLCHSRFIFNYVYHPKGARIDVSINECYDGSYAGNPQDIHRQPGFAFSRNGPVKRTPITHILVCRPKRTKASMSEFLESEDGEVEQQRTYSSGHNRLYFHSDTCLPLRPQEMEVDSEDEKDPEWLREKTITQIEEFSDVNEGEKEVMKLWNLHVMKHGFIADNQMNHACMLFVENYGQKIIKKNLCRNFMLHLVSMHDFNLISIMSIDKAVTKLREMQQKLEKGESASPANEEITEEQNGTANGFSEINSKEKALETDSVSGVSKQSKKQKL
The meaning of pIC50 here: minus log10 of the concentration in molar units.

Solved entries (count: 5):
[
  {
    "Compound": "Cc1ncccc1-c1cnc(NCc2cccc3c2CCO3)n2cnnc12 [Example 123]",
    "pIC50": 7.63
  },
  {
    "Compound": "COC(=O)N1CCN(c2ccc(-c3cnc(NCc4cccc5c4CCO5)n4cnnc34)cn2)CC1 [Example 97]",
    "pIC50": 8.07
  },
  {
    "Compound": "Fc1ccccc1-c1cnc(NCc2cccc3c2CCO3)n2cnnc12 [Example 31]",
    "pIC50": 7.67
  },
  {
    "Compound": "Cc1nn(C[C@H](C)O)c(C)c1-c1cnc(NCc2c(F)ccc3c2CCO3)n2cnnc12 [Example 187]",
    "pIC50": 7.90
  },
  {
    "Compound": "Cc1nn(C)cc1-c1cnc(NCc2cccc3c2CCO3)n2cnnc12 [Example 30]",
    "pIC50": 7.61
  }
]

Write pIC50 of Clc1ccncc1-c1cnc(NCc2cccc3c2CCO3)n2cnnc12 [Example 50] ; system used: wild type PRC2 (wtPRC2) complex (Homo sapiens (Human))
7.39

Please indicate recorded pIC50 of CC(C)n1cc(-c2cnc(NCc3c(F)ccc4c3CCO4)n3cnnc23)c(C(F)(F)F)n1 [Example 148] measured with wild type PRC2 (wtPRC2) complex (Homo sapiens (Human)).
7.74

Please respond with reported pIC50 (system wild type PRC2 (wtPRC2) complex (Homo sapiens (Human))) for c1ccc(-c2cnc(NCc3cccc4occc34)n3cnnc23)cc1 [Example 217] .
6.95

Write down the reported pIC50 (system: wild type PRC2 (wtPRC2) complex (Homo sapiens (Human))) of Cc1ncc(-c2cnc(NCc3c(F)ccc4c3CCO4)n3cnnc23)c(C)n1 [Example 3]
8.19

* * *

A set of molecules tested on EED (1-441)-His protein (Homo sapiens (Human)), with measured IC50:
Could you give me the number in nM? Just the number is fine.

[
  {
    "Molecule": "Cc1ncccc1-c1c(C)nc(NCc2c(F)ccc3c2CCO3)n2cnnc12",
    "Units": "nM",
    "Result Value": 42.4
  },
  {
    "Molecule": "Fc1ccc2c(c1CNc1ncc(-c3ccc(N4CCSCC4)nc3)c3nncn13)CCO2",
    "Units": "nM",
    "Result Value": 9.9
  },
  {
    "Molecule": "COc1ccc(-c2cnc(NCc3cccc4c3CCO4)n3cnnc23)cn1",
    "Units": "nM",
    "Result Value": 25.2
  }
]

Tell me measured IC50 for `Cc1nc(S(C)(=O)=O)ccc1-c1cnc(NCc2c(F)ccc3c2CCO3)n2cnnc12` please.
1.7

Write down IC50 measured for item `COCCn1nc(C)c(-c2cnc(NCc3c(F)ccc4c3CCO4)n3cnnc23)c1C`
5

* * *

Molecular target: wild type PRC2 (wtPRC2) complex (Homo sapiens (Human))
Assay: EED LC-MS assay
Settings: read-out: (b) IC50 EED LC-MS Qualified
Description: A 6 μL solution of 3 μM of the peptide substrate H3K27Me0 (histone H3[21-44]-biotin) in reaction buffer was added to initiate each reaction. […] ELISA (H3K27 Methylation) Assay
List of IC50 values.

Consider the following illustrative entries.
[
  {
    "Molecule": "Cc1c(-c2cnc(NCc3c(F)ccc4c3C(O)CO4)n3cnnc23)ccc[n+]1[O-] (stereo not shown)",
    "IC50": "38.9 nM"
  },
  {
    "Molecule": "Cc1c(-c2cnc(NCc3c(F)ccc4c3CCO4)n3cnnc23)cnn1CCO",
    "IC50": "8.7 nM"
  },
  {
    "Molecule": "Cc1nc(C(=O)N(C)C)ccc1-c1cnc(NCc2c(F)ccc3c2CCO3)n2cnnc12",
    "IC50": "7.2 nM"
  }
]

Provide IC50 value for the following molecule: `COc1cc(Cl)c(-c2cnc(NCc3c(F)ccc4c3CCO4)n3cnnc23)cn1`
8.4 nM

Please give the documented IC50 of `Cc1cn(-c2cnc(NCc3c(F)ccc4c3CCO4)n3cnnc23)cn1`
11.5 nM

Using known records, supply IC50 for `COc1cc(C)c(-c2cnc(NCc3c(F)ccc4c3CCO4)n3cnnc23)cn1`
9.7 nM

Annotate the molecule `CN(C)Cc1ccc(-c2cnc(NCc3cccc4c3CCO4)n3cnnc23)cc1` with its measured IC50.
20 nM

Consider the molecule `Fc1ccc2c(c1CNc1ncc(-c3ccnc(N4CCOCC4)c3)c3nncn13)CCO2` . State its measured IC50.
25.6 nM

Let me know recorded IC50 for `Cc1cncc(-c2cnc(NCc3c(F)ccc4c3CCO4)n3cnnc23)c1` , thanks.
13.1 nM

Entry `c1cncc(-c2cnc(NCc3cccc4c3CCO4)n3cnnc23)c1` needs its IC50 filled in; supply it.
24 nM
